// data source = the supplement of paper PMC8728848

# target-of-assay: Fuc(a1-2)Gal(b1-4)GlcNAc6S
# measurement-protocol: glycan array binding signal (z-score within array); higher = stronger binding
# condition-summary: glycan notation: IUPAC condensed, linker removed
Only a selection was taken, and the strongest signals are over-represented in it overall.
quantity: glycan array binding signal (z-score)
Numbers only.

CC1G-11630 (Coprinopsis cinerea), A8P462 (protein) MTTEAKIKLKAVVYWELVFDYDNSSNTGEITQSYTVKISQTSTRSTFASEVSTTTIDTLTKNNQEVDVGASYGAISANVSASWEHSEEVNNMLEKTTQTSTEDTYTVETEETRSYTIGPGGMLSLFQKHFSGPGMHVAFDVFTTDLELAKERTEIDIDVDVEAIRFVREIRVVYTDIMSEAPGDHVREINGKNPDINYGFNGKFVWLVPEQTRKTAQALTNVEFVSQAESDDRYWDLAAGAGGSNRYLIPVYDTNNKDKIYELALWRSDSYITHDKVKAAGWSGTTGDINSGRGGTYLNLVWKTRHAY : 0.388
Erv41-EDTA (Saccharomyces cerevisiae), Q04651 (protein) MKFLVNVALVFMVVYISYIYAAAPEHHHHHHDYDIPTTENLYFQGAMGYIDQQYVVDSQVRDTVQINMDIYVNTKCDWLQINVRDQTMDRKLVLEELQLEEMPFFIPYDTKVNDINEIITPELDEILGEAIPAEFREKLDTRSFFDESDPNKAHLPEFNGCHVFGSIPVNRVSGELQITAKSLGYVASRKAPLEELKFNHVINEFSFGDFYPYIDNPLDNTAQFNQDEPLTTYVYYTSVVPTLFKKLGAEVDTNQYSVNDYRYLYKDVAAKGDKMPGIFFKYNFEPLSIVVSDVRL : 0.642
Dectin2 (Homo sapiens), Q6EIG7 (protein) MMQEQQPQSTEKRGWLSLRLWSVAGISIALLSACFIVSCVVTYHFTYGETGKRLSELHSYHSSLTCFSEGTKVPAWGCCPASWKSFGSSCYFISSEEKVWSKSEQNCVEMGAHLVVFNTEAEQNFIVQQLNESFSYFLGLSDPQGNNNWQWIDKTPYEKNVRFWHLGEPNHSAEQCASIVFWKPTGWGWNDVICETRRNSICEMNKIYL : 0.311
SalT (Orysata sativa) (protein) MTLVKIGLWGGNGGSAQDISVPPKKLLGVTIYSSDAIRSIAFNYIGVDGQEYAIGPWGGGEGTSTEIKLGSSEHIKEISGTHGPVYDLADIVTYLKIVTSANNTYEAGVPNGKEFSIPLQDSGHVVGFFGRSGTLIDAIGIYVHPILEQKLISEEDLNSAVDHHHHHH : -0.308
NKR-PIC (Mus musculus) (protein) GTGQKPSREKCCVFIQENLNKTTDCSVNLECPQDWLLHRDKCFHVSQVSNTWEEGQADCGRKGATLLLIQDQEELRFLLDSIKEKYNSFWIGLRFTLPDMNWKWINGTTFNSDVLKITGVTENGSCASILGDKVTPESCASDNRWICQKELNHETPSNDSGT : -0.32
ABA (Agaricus bisporus), Q00022 (protein) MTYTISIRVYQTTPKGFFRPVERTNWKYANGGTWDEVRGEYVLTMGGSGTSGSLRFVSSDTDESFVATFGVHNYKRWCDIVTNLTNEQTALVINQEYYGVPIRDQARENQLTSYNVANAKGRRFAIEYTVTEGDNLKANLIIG : -0.289

Now look at this entry.
# binder Gal 9 (Homo sapiens), O00182 (protein) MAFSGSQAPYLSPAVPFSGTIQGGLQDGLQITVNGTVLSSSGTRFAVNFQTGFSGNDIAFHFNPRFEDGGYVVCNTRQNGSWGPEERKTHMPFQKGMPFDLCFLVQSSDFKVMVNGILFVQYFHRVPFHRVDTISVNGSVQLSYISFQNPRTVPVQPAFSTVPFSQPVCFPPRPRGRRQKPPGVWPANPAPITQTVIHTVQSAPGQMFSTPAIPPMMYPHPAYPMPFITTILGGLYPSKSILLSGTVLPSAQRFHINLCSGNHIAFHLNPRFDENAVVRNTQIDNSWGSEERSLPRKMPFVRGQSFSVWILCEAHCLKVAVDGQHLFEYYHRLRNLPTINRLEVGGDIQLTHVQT ; its glycan array binding signal (z-score) = 0.06
